- STUDY TARGET: COX-2 (Homo sapiens, UniProt P35354)
- Sequence (P35354 18-604): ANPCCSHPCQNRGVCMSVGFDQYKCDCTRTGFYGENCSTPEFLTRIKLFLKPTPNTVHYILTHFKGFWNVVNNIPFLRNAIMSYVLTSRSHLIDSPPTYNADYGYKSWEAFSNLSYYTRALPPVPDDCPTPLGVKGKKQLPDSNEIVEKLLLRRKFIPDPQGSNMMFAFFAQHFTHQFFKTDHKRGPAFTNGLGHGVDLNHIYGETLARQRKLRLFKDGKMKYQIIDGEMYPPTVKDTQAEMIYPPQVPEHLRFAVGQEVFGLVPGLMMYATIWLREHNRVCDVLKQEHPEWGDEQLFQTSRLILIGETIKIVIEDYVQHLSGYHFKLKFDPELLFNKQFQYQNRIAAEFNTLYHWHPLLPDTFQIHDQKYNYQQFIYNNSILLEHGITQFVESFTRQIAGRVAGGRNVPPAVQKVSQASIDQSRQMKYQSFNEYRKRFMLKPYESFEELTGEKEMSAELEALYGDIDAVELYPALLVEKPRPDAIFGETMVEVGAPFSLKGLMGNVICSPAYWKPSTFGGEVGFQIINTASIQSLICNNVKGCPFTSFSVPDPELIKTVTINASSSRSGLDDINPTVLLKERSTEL
- MEASUREMENT PROTOCOL: COX-2 inhibitor screening kit
- Format: biochemical
Given measured SI = IC50(COX-1)/IC50(COX-2), output True if it is greater than or equal to 0.3 and False if not.

# COMPOUND, CLASSIFICATION
measured = [
    ("CC(=O)Oc1ccc(Cl)cc1C(=O)N1C/C(=C\\c2ccc(Br)cc2)C(=O)/C(=C/c2ccc(Br)cc2)C1 [Compound 5l]", "True"),
    ("COc1ccc(/C=C2\\CN(C(=O)c3cc(Cl)ccc3OC(C)=O)C/C(=C\\c3ccc(OC)c(OC)c3)C2=O)cc1OC [Compound 5n]", "True"),
    ("CC(=O)Oc1ccccc1C(=O)N1C/C(=C\\c2ccccc2)C(=O)/C(=C/c2ccccc2)C1 [Compound 5a]", "False"),
    ("COc1cc(/C=C2\\CN(C(=O)c3ccccc3OC(C)=O)C/C(=C\\c3cc(OC)c(OC)c(OC)c3)C2=O)cc(OC)c1OC [Compound 5h]", "True"),
    ("COc1ccc(/C=C2\\CN(C(=O)c3ccccc3OC(C)=O)C/C(=C\\c3ccc(OC)c(OC)c3)C2=O)cc1OC [Compound 5g]", "False"),
]

Incoming: Confirm if SI = IC50(COX-1)/IC50(COX-2) reported for the compound CC(=O)Oc1ccc(Cl)cc1C(=O)N1C/C(=C\c2ccccc2)C(=O)/C(=C/c2ccccc2)C1 [Compound 5j] is 0.3 or above.
Outgoing: False

Incoming: Record COc1ccc(/C=C2\CN(C(=O)c3ccccc3OC(C)=O)C/C(=C\c3ccc(OC)cc3)C2=O)cc1 [Compound 5f] ; criterion: SI = IC50(COX-1)/IC50(COX-2) no lower than 0.3. Met?
Outgoing: True

###

- STUDY TARGET: EGFR (Homo sapiens, UniProt P00533)
- Sequence (P00533 25-1210): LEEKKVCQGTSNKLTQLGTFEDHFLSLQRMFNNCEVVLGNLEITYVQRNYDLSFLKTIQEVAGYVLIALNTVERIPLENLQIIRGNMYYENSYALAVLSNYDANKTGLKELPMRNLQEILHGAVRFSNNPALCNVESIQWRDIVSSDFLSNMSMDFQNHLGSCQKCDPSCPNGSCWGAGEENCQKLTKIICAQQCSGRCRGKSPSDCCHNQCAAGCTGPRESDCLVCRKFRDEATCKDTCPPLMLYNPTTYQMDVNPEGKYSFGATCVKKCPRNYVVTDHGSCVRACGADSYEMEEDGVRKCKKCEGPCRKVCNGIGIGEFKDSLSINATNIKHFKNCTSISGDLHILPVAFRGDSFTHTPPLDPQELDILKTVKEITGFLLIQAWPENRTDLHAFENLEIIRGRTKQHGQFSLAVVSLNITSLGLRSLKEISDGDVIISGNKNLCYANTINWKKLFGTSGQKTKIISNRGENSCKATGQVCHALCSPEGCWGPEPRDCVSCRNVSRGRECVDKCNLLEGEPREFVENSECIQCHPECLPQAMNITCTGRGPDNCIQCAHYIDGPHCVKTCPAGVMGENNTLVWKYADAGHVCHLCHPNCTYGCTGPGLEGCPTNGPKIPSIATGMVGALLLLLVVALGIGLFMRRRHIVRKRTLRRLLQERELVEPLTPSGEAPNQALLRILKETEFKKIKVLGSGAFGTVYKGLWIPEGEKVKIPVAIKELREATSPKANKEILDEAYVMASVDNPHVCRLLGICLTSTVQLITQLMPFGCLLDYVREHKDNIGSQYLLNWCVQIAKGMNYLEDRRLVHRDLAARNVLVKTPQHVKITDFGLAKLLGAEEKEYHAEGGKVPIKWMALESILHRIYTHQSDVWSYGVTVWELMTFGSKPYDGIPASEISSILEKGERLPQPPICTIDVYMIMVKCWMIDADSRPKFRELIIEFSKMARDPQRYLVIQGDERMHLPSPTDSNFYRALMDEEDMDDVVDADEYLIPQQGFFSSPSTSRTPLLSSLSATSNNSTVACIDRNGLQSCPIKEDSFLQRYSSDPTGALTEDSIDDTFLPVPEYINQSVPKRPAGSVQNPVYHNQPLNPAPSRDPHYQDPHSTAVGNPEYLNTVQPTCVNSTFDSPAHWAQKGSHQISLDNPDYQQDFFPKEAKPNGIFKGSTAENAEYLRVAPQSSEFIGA
- MEASUREMENT PROTOCOL: EGFR Western blot in HCT116
- Type: cell-based
- TEST CONDITIONS: Western blot at MTT-IC50
Readings of EGFR HCT116 % Inhibition for the listed compounds
// return numeric value only (unit: %, not printed)

Some solved entries appear below for comparison.
# COMPOUND, OBSERVABLE, TEST VALUE
data = [
    ("CC(=O)Oc1ccccc1C(=O)N1C/C(=C\\c2ccc(F)cc2)C(=O)/C(=C/c2ccc(F)cc2)C1 [Compound 5b]", "EGFR HCT116 % Inhibition", 72.8),
    ("COc1cc(/C=C2\\CN(C(=O)c3ccccc3OC(C)=O)C/C(=C\\c3cc(OC)c(OC)c(OC)c3)C2=O)cc(OC)c1OC [Compound 5h]", "EGFR HCT116 % Inhibition", 57.9),
    ("CC(=O)Oc1ccccc1C(=O)N1C/C(=C\\c2cccs2)C(=O)/C(=C/c2cccs2)C1 [Compound 5i]", "EGFR HCT116 % Inhibition", 61.3),
]

// next item, EGFR HCT116 % Inhibition requested
Just so you know, measured EGFR HCT116 % Inhibition for CC(=O)Oc1ccccc1C(=O)N1C/C(=C\c2ccc(C)cc2)C(=O)/C(=C/c2ccc(C)cc2)C1 [Compound 5e] came out at 58.8

###

- STUDY TARGET: VEGFR-2 (Homo sapiens, UniProt P35968)
- Sequence (P35968 20-1356): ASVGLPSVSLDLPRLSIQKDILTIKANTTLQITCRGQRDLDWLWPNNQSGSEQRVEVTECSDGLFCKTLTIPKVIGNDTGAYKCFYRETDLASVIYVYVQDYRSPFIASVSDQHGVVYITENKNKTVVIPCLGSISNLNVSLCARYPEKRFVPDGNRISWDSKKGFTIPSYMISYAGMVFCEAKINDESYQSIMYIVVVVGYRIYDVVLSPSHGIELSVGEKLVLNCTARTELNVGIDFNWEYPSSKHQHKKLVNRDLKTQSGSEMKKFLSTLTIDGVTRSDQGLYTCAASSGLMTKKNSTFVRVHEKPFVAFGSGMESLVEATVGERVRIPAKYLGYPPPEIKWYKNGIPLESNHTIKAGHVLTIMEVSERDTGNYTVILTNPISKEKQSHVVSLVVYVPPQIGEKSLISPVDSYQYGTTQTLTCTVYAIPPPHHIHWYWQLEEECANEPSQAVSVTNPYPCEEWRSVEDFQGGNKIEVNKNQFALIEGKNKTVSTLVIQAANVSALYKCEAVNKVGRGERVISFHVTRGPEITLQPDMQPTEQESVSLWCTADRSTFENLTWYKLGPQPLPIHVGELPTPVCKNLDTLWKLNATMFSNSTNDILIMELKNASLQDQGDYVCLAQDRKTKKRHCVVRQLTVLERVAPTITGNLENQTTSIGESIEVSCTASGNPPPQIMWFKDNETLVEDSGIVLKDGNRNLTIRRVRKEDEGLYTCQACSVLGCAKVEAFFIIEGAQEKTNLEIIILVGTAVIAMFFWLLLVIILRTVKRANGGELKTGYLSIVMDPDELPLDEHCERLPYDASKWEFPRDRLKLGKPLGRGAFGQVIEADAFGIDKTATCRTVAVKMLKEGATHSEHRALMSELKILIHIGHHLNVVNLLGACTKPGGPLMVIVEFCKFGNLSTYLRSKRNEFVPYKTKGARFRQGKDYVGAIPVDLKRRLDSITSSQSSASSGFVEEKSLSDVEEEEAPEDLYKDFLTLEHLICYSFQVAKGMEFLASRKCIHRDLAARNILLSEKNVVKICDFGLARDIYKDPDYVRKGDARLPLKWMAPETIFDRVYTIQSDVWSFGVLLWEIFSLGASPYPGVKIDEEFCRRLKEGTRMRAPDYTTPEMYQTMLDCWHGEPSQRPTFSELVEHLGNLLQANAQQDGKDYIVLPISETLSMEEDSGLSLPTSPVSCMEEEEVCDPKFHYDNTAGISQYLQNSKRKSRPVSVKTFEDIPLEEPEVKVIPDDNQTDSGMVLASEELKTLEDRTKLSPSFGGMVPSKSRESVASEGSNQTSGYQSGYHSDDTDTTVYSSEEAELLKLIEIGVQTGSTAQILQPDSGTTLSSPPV
- MEASUREMENT PROTOCOL: VEGFR-2 Western blot in MCF7
- Format: cell-based
- TEST CONDITIONS: Western blot at MTT-IC50
Form field: VEGFR2 MCF7 % Inhibition (one value per entry).
Answer format reminder: number followed by unit.

Use the examples below as a reference point.
# MOLECULE, VEGFR2 MCF7 % Inhibition
rows = [
    ("CC(=O)Oc1ccccc1C(=O)N1C/C(=C\\c2cccs2)C(=O)/C(=C/c2cccs2)C1 [Compound 5i]", "46.3%"),
    ("CC(=O)Oc1ccc(Cl)cc1C(=O)N1C/C(=C\\c2ccc(Br)cc2)C(=O)/C(=C/c2ccc(Br)cc2)C1 [Compound 5l]", "70.5%"),
]

Pending molecule:
Noted for CC(=O)Oc1ccccc1C(=O)N1C/C(=C\c2ccccc2)C(=O)/C(=C/c2ccccc2)C1 [Compound 5a] : its VEGFR2 MCF7 % Inhibition reads 64.6%
